# measured_on: T1, hCD137.1-F-G1d (human)
# T1 construct: Portion of the human CD137 extracellular region linked to an antibody constant region
# procedure_text: ELISA; 500 uM kynurenine, Ab 10 ug/mL

binder	absorbance ratio
dBBK026-P253 (antibody, human IgG1, kappa, V domains shown) VH: QVQLVQSGAEVKKPGSSVKVSCKASGGEFSNYFISWVRQAPGQGLEWMGMVHPIEGWAVYAQKFQGRVTITADESTSTAYMELSSLRSEDTAVYYCARDRPVFCCPRGAFDIWGQGTLVTVSS VL: DIVMTQSPLSLPVTPGEPASISCRSSQSLVSPGDNTFLSWYLQKPGQSPQLLIYEIERRFYGVPDRFSGSGSGTDFTLKISRVEAEDVGVYYCMQASTFPRTFGQGTKVEIKR	1
dBBK101-P253 (antibody, human IgG1, kappa, V domains shown) VH: QVQLVQSGAEVKKPGSSVKVSCKASGGAFSYYLISWVRQAPGQGLEWMGFVDPIRGGAFYAQKFQGRVTITADESTSTAYMELSSLRSEDTAVYYCARDRPVNAAPRGAFDIWGQGTLVTVSS VL: DIVMTQSPLSLPVTPGEPASISCRSSQSLVGDRGNTYLSWYLQKPGQSPQLLIYEIGSIFYGVPDRFSGSGSGTDFTLKISRVEAEDVGVYYCMQAAEFPRTFGQGTKVEIKR	1.3
dBBK060-P253 (antibody, human IgG1, kappa, V domains shown) VH: QVQLVQSGAEVKKPGSSVKVSCKASGGDFSNYVISWVRQAPGQGLEWMGFINPIYGAAGYAQKFQGRVTITADESTSTAYMELSSLRSEDTAVYYCARDEPVASLPHGAFDIWGQGTLVTVSS VL: DIVMTQSPLSLPVTPGEPASISCRSSQSLVDPWGNTFLSWYLQKPGQSPQLLIYEISNRFYGVPDRFSGSGSGTDFTLKISRVEAEDVGVYYCMQAKDFPRTFGPGTKVEIKR	1.2
dBBK102-P253 (antibody, human IgG1, kappa, V domains shown) VH: QVQLVQSGAEVKKPGSSVKVSCKASGGAFSYYLISWVRQAPGQGLEWMGFVDPIRGGAFYAQKFQGRVTITADESTSTAYMELSSLRSEDTAVYYCARDRPVNAAPRGAFDIWGQGTLVTVSS VL: DIVMTQSPLSLPVTPGEPASISCRSSQSLVWNDRNTFLSWYLQKPGQSPQLLIYEIRKRFYGVPDRFSGSGSGTDFTLKISRVEAEDVGVYYCMQAQDFPRTFGQGTKVEIKR	1.2
dBBK051-P253 (antibody, human IgG1, kappa, V domains shown) VH: QVQLVQSGAEVKKPGSSVKVSCKASGGGFSSYGISWVRQAPGQGLEWMGALFPISSQASYAQKFQGRVTITADESTSTAYMELSSLRSEDTAVYYCARDRPVDYVPHGAFDIWGQGTLVTVSS VL: DIVMTQSPLSLPVTPGEPASISCRSSQSLVSPGDNTFLSWYLQKPGQSPQLLIYEIERRFYGVPDRFSGSGSGTDFTLKISRVEAEDVGVYYCMQASTFPRTFGQGTKVEIKR	1.2
dBBK070-P253 (antibody, human IgG1, kappa, V domains shown) VH: QVQLVQSGAEVKKPGSSVKVSCKASGGWFSHYSISWVRQAPGQGLEWMGVVWPIRSFATYAQKFQGRVTITADESTSTAYMELSSLRSEDTAVYYCARDNPVTSWPHGAFDIWGQGTLVTVSS VL: DIVMTQSPLSLPVTPGEPASISCRSSQSLVRPFGNTFLSWYLQKPGQSPQLLIYEISTRFYGVPDRFSGSGSGTDFTLKISRVEAEDVGVYYCMQAHQFPRTFGQGTKVEIKR	1.8

Every entry's value here was drawn from patent US20210324099A1.
